Would you mind telling me the reported phosphorylation enrichment of each entry?
experimentalTarget: FGFR1 (UniProt P11362)
Sequence (P11362 whole entry, looked up): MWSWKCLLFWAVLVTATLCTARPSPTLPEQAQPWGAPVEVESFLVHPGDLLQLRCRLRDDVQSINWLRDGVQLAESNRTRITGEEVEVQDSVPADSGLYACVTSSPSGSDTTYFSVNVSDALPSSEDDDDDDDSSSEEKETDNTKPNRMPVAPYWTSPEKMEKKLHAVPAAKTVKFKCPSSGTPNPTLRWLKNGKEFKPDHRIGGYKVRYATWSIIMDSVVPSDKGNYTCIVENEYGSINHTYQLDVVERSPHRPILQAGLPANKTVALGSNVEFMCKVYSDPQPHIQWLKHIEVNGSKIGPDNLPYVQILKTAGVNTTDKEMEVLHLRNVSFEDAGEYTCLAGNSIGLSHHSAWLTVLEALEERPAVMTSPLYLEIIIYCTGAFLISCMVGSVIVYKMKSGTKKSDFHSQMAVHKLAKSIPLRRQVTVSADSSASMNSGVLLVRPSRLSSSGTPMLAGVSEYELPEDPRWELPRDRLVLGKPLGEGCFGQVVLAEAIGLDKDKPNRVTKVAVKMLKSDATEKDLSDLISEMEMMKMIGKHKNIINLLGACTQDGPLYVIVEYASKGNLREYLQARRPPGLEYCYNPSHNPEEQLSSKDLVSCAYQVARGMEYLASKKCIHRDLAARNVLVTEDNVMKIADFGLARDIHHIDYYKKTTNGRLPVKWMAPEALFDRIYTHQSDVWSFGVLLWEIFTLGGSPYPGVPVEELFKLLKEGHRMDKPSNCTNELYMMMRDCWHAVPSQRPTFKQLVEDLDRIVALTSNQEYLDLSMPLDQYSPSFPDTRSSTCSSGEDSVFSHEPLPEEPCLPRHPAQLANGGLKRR
testProtocol: phosphorylation enrichment, bacterial display (enrichment ratio); higher = better substrate or ligand; peptides without Tyr show the background;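 also: 11-residue human phosphosite peptides and single-mutation variants displayed on the E. coli surface, counted by deep sequencing, each peptide's frequency after selection divided by its frequency in the unselected input library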;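 also: frequency after pTyr selection over input frequency; kinase dosed for 20-30% of maximal phosphorylation in three min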
// return a plain number; no unit text

phosphorylation enrichment for NFYEYYVDDPP [GCHFR_Y48] ? 5.94

# input sequence: KVGNEYVNKGQ [MYH7_Y410_T412N] ; wanted: its phosphorylation enrichment 0.492

If you can, please state the reported phosphorylation enrichment value of SKNYTYIWWLN [PSG4_Y271] . 0.589

Could you tell me which phosphorylation enrichment is on file for VTRDEYPSNPM [CEMIP2_Y1015_I1010V] ? 0.323

So what's the measured phosphorylation enrichment for this one? HFVDEYDPTME [KRAS_Y32_I36M] 0.424

Given the entry IFETDYFRKGG [INSR_Y1189_YF] , report its measured phosphorylation enrichment. 0.536

Could you tell me which phosphorylation enrichment is on file for PGLSSYGVPAS [FLNB_Y1530] ? 0.56

Value lookup for phosphorylation enrichment; key = TDHLQYFDSNK [ARAP1_Y359_R358Q] 0.928

So what's the measured phosphorylation enrichment for this one? PTFKHYANSTQ [SLC12A3_Y70_E68K_YF] 0.574

I am curious: what phosphorylation enrichment value has been reported for VLPIDYYFPPQ [AR_Y552] ? 15.4

Sample EGELRYMHSRV [ABCD1_Y281_K276E] — what was its phosphorylation enrichment? 0.428

Looking for the measured phosphorylation enrichment of AAVDEYLEFRR [FAM221A_Y17_YF] , can you help? 0.601

I have this sequence here, GKMSSYAFFVQ [HMGB1_Y16] , and I need its recorded phosphorylation enrichment. 0.603

Sample LFEDRYLLGTS [ASS1_Y87_YF] — what was its phosphorylation enrichment? 1.26

Fill blank: measured phosphorylation enrichment of the sequence SARSAYQEAMD [SFN_Y151] is ____. 0.418

# input sequence: IHKEFYDGLFP [BCR_Y561] ; wanted: its phosphorylation enrichment 0.606

What measured phosphorylation enrichment goes with YASALYGQRRS [FGF11_Y162_R163G] ? 0.371

Query: phosphorylation enrichment; subject: RSDEDYLYREE [POR_Y573] 0.784

Fill in: phosphorylation enrichment of KILGRYYETSS [PAX2_Y72_G76S] is ___ 0.435

For the sequence FLAVGDHKPHI [IDS_Y225_Y225D] , what phosphorylation enrichment is on record? 0.384

Which measured phosphorylation enrichment value corresponds to KAIMTYVFSFY [ACTN4_Y260_S262F] ? 0.559

Requested field: phosphorylation enrichment. Item: AVAFVYFKSIG [ADGRL4_Y301_YF] 0.798

Recorded phosphorylation enrichment for SSYSGYIMMPN [LEF1_Y114] , please? 3.79

Could you tell me which phosphorylation enrichment is on file for SMEGLYSSTQD [CLIC5_Y111] ? 0.698

Query: phosphorylation enrichment; subject: FGLQAYTEVKT [ALDH2_Y502_YF] 0.584

Which value of phosphorylation enrichment has been reported for VEGIGYDFIPT [CBS_Y308] in the records? 0.588

Tell me the measured phosphorylation enrichment of VFAPDYIAGVS [NOB1_Y366] , please. 0.537

# get_value(readout='phosphorylation enrichment', item= YSQNIYIQNRN [PKP2_Y631] ) 0.482

Request the reported phosphorylation enrichment associated with SSQAHYRLSAF [ADAMTS9_Y100] 0.399

Item CPYNLYAEQFS [HGD_Y40_L44F] has what recorded phosphorylation enrichment? 0.877

Measured values drawn from the supplement of paper PMC10065799 for this set.
